Molecule	melting point
CCOCc1nc2c(N)nc3cc(-c4cccc(CO)c4)cnc3c2n1CC(C)(C)O	186 to 187 °C
NC(=O)C1CCc2sc3ccccc3c2C1 (stereo unspecified)	153 to 155 °C
COCCOCOc1c(C(C)(C)C)cc(C(=N)NN)cc1C(C)(C)C	133 °C
COc1ccc(C2=CCN(Cc3n[nH]c4c(F)c(F)ccc34)CC2)cc1	195 to 197 °C
COc1cccc(C2c3ccccc3C(c3ccc4c(c3)OCO4)C2C(=O)O)c1 (stereo unspecified)	131 to 133 °C
CCCC(=O)Nc1ccc(OC)c(C(C)=O)c1	113 °C
O=C1CCC(N2Cc3c(OCc4cc(Cl)ccc4Cl)cccc3C2=O)C(=O)N1 (stereo unspecified)	256 to 258 °C
Cc1cccc2cc(C3CCN(C)CC3)[nH]c(=O)c12	200 to 202 °C
O=C(O)CNC(=O)c1ccc(C(=O)NS(=O)(=O)c2ccc(C(=O)NCCc3ccccc3)cc2)cn1	263 to 265 °C
CCOC(=O)c1cc2n(n1)CCCO2	44 to 46 °C
Cc1ccccc1C(=O)Nc1ccc(-n2nc(C3CC3)cc2C2CC2)c(F)c1	105 to 107 °C
CCCc1nc2c(N)nc(C)c(C)c2n1CCCCN(O)C(=O)Nc1ccccc1	159 to 160 °C
Cc1cc(C)cc(Nc2nccc(-c3nc4ccccc4s3)n2)c1	217 to 219 °C
Cc1onc(-c2ccccc2)c1-c1[nH]c2ccccc2c1CCC(=O)N(C)C	174 to 177 °C
Cc1ccc(-c2coc3c(C)c(O)ccc3c2=O)cc1	264 to 267 °C
CCCCn1c(=O)c2nc(C(=O)O)cn2c2ccccc21	220 to 222 °C
Nc1ccc(Cl)cc1Cc1ccccc1Cl	64 to 65 °C
CCOCn1c(Nc2cc(C)cc(C)c2)c(CC)c(=O)[nH]c1=O	175 to 176 °C
Cc1ccc(Oc2cccc(-c3nnc(Nc4ccc(Cl)c(Cl)c4)s3)c2)cc1	210 to 211 °C
CC(C)(C)OC(=O)N1CCN(c2ccc(-c3[nH]nc4c3C(=O)c3c(NC(=O)NN5CCOCC5)cccc3-4)cc2)CC1	242 °C
CNN(NC)C(=S)Oc1cccnc1C(=O)OC	74 to 75 °C

====

Compound	melting point
COC(=O)C(=C\c1c(OC)cc(OC)cc1OC)/C(=C\c1ccccc1)C(=O)O	208 to 210 °C
NC(=O)CN1C(=O)[C@@H](NC(=O)c2ccc(Cl)cc2)[C@H](c2ccccc2)Sc2ccccc21 (relative stereo)	272 to 275 °C
N#CN1CCC(c2nn(C(=O)c3ccccc3)c3ccccc23)CC1	144 to 146 °C
COc1cc(CN(C)c2ncnc3c(N4CCOCC4)nc(N4CCC(N(C)C)CC4)nc23)cc2ccccc12	130 °C
O=C1Nc2cc(C(F)(F)F)ccc2Oc2ccccc21	246 to 247 °C
NC(=O)OCCN1Cc2ccccc2CCO1	110 to 111 °C
COC(=O)CCn1c(=O)n(CCN2CCN(c3cccc(OC)c3)CC2)c(=O)c2cscc21	136 to 137 °C
CCCCCCCCCCCCCCCC1Cc2ccc(C(=O)O)cc2N1 (racemic)	119 to 122 °C
CC(=O)NNC(=O)N(O)C1c2ccccc2Oc2ccccc21	173 to 176 °C
O=C1c2ccccc2C(=O)N1n1cccc1Cl	130 to 132 °C
O=C(O)CN1CCN2c3ccccc3Cc3ccccc3C2C1 (stereo not given)	162 to 163 °C
COc1cc2cc3ncc(C#N)c(Nc4ccc(Oc5ccccc5)cc4)c3cc2cc1OC	> 265 °C
CCOC(=O)c1cn(CCc2ccc(O)cc2)c2cc(C3CC3)nn2c1=O	95 to 100 °C
Cc1sc(C(N)=O)c2c1-c1c(cnn1Cc1ccccc1)CC2	205 to 206 °C
C/C(=C\c1ccc(P(=O)(O)O)cc1)c1ccc2c(c1)C(C)(C)CCC2(C)C	208 to 209 °C
CC1OC(O)CC(NC(=O)C(F)(F)F)C1(C)O (stereo not given)	110 to 111 °C
O=C1C2CCCCN2C(=S)N1c1ccc(F)cc1F (stereo not given)	159 to 160 °C
O=C(O)c1ccccc1Oc1ccc(C(F)(F)F)cc1NS(=O)(=O)c1ccccc1	177 °C
Cc1cc2[nH]c(C)nc(N3CCOCC3)c-2n1	242 to 243 °C
CN(C)C(=O)c1ccc(Cl)c(C#N)c1	193 °C
COc1ccc(O[C@@H]2CCNC[C@H]2O)cc1 (relative stereo)	171 to 173 °C
O=C1C(=O)c2ccccc2C2=C1SCC1(CCSCC1)O2	221 to 223 °C
CCN(C(=O)c1ccc(Cl)c(Cl)c1)c1ccc(C)cc1CCC(=O)O	107 to 109 °C
COc1ccc2c(=O)[nH]c(-c3ccc(OCCNC(C)C)c(-c4ccc(S(C)(=O)=O)cc4)n3)nc2c1	204 to 205 °C
O=C(O)c1ncn2c(C(F)(F)F)cc(-c3ccc(C(F)(F)F)cc3)nc12	231 °C
Nc1ccc(-c2ncnn2-c2ccc(F)cc2)cc1	128 to 130 °C
O=CN(O)C(CS(=O)(=O)c1ccc(-c2ccc(C(F)(F)F)cc2)cc1)c1ccc(O)cc1 (stereo not given)	225 °C
O=C(Nc1cccc(C(=O)O)c1OCc1ccccc1Cl)c1ccccc1Cl	182 to 183 °C
O=C(O)C(Cl)=C(Cl)C(=O)c1ccccc1	228 °C
O=C(c1ccccc1)c1ccc(N2CCC(N3Cc4ccccc4C3=O)CC2)cc1	173 to 175 °C
CCc1oc(C)cc(=O)c1O	157 to 159 °C
CC(C)(C)C1c2ccccc2-c2cc(Br)ccc2N1S(=O)(=O)c1ccc(O)cc1 (stereo not given)	245 to 247 °C
Cc1oc2ccccc2c1C(=O)c1ccc(Cl)c(S(N)(=O)=O)c1	183 °C
Cc1nc(Sc2ncccc2C(=O)O)sc1CC(=O)O	233 to 235 °C
CCOC(=O)c1cn(C)c2nc3cc(N4CC(N(C)C)C4)c(F)cc3cc2c1=O	224 °C
CNc1nn(C(=O)Cl)c(=O)n1C	185 °C
CN1CCN(c2cccc3ccc(Nc4ncccc4N)cc23)CC1	198 to 200 °C
O=C(Oc1cccc2c(OC(=O)c3ccc(O)cc3)c3c(OC(=O)c4ccc(O)cc4)cccc3cc12)c1ccc(O)cc1	326 °C
Cc1nc2c([N+](=O)[O-])cccn2c1C=O	188 to 189 °C
CCCc1nc2cccc(C(O)=S)c2n1Cc1ccc(-c2ccccc2-c2nc(=O)o[nH]2)cc1	220 to 221 °C
